Ref: patent US9434728B1

Quick reference: MIC of the listed items.
system: K. pneumoniae (S48); assay: Antibacterial activity, agar dilution MIC (CLSI); format: cell-based; conditions: Klebsiella pneumoniae, ESBL NDM, SHV

compound	target system	comparison operator	MIC, µg/mL
CC(C)(O/N=C(\C(=O)N[C@@H]1C(=O)N2C(C(=O)[O-])=C(C[n+]3ccccc3)CS[C@H]12)c1csc(N)n1)C(=O)O [Ceftazidime]	K. pneumoniae (S48)	>	32
NC[C@@H]1CC[C@@H]2CN1C(=O)N2OS(=O)(=O)O [Compound (XI)]	K. pneumoniae (S48)	=	1
C[C@@H](O)[C@H]1C(=O)N2C(C(=O)O)=C(SCCN=CN)C[C@H]12 [Imipenem]	K. pneumoniae (S48)	=	16
CO/N=C(\C(=O)N[C@@H]1C(=O)N2C(C(=O)[O-])=C(C[N+]3(C)CCCC3)CS[C@H]12)c1csc(N)n1 [Cefepime]	K. pneumoniae (S48)	>	32
